experiment: Thermodynamic solubility of the compound in monobasic potassium phosphate buffer at pH 7.4 after 24 hrs by LC-MS/MS analysis; format: physicochemical; details: read-out: Therm_solubility
measurement_name: solubility thermodynamic at 24 h (µM)
The figure you give is taken to be in µM; do not add the unit.

Q) Entry under review: CN(c1ccc(Cl)cc1)c1ccc(C(=O)c2ccc(C(=O)C3(c4ccccc4)CCCCC3)c(C(=O)O)c2)nc1 . Reported solubility thermodynamic at 24 h?
A) 7
